Test system: HT-29
Assay: NCI tumour cell line growth inhibition, 48 h
Calls of active or inactive are those of the source. No stated cut-off is given here; in the data, active = GI50 up to about 1.1 µM and inactive = higher.
Measured GI50 values are reported for all entries that follow.
Measured metric: GI50

1) CCOC(=O)C(=O)Nc1ccc(C)c(C)c1 | > 56.2 µM (inactive)
2) COc1cccc(CN(C(=O)/C=C\Sc2ccccc2)C(C)(C)C)c1 | 31.1 µM (inactive)
3) CN(C)C(=S)Oc1ccc2ccc(=O)oc2c1 | > 100 µM (inactive)
4) O=[N+]([O-])C(=C(N1CCCCC1)N1CCCCC1)/C(Cl)=C(\Cl)[N+](=O)[O-] | 4.74 µM (inactive)
5) CN(C)CCNc1nc2ccccc2c2c1CCCC2 | 22.8 µM (inactive)
6) CCNC(CCCC(NCC)P(=O)(O)O)P(=O)(O)O (configuration not stated) | > 100 µM (inactive)
7) CC(=O)Oc1ccc2c(c1)Oc1cc(C(C)=O)ccc1C21OC(=O)c2ccccc21 (configuration not stated) | > 100 µM (inactive)
8) Cc1nc(O)nc(O)c1/C=C/C(=O)O | > 1000 µM (inactive)
9) O=[N+]([O-])c1ccc(NN=C2CN3CCN(C2)c2ccccc23)c([N+](=O)[O-])c1 | > 100 µM (inactive)
10) [O-][n+]1onc(-c2ccccc2)c1CN1CCOCC1 | > 100 µM (inactive)
11) C/C(=N\NC(=O)Nc1ccccc1Cl)c1ccc(O)cc1 | > 100 µM (inactive)
12) C=C(C)CNC(=S)N(N)c1ccc2ccccc2c1 | 65.3 µM (inactive)
13) Cc1nn(C(=O)c2ccccc2O)c2c1C(c1ccc3ccccc3c1O)SC(=N)N2 (configuration not stated) | 9.55 µM (inactive)
14) CN(/N=C/C=N/N(C)C1=NCCCN1)C1=NCCCN1 | > 100 µM (inactive)
15) CN(C)CCOC1(CC2CCCCC2)CCC(C(C)(C)C)CC1 (configuration not stated) | 2.43 µM (inactive)
16) CC1(CC(=O)OC(C#C[Si](C)(C)C)Cc2ccccc2)OCCO1 (configuration not stated) | > 100 µM (inactive)
17) O=C(O)c1ccc(C2COc3ccc(Cl)cc3C2)cc1 (configuration not stated) | > 100 µM (inactive)
18) Cc1c(C)c(C)c(CC2(C)CSC2)c(CC2(C)CSC2)c1C | > 100 µM (inactive)
19) CC1(C)CCC[C@](C)([C@H]2CC[C@]3(C)[C@@H]2[C@H](O)C[C@@H]2[C@@]4(C)CC[C@H](O)C(C)(C)[C@@H]4[C@H](O)C[C@]23C)O1 | 3.55 µM (inactive)
20) CCOC(=O)/C(C(=O)Nc1cccc(Cl)c1)=C(/N)N1CCOCC1 | > 100 µM (inactive)
21) O=C(Nc1cccc(NC(=O)C(=O)C2CCC3=C(Sc4ccccc4N3)C2=O)n1)C(=O)C1CCC2=C(Sc3ccccc3N2)C1=O (configuration not stated) | 67.9 µM (inactive)
22) Cc1ccc(NC(=O)C2C3C=CC(O3)C2C(=O)O)cc1 (configuration not stated) | 19.8 µM (inactive)

* * *

Measured GI50 values are reported for all entries that follow.
System: SF-268
Experiment: NCI tumour cell line growth inhibition, 48 h
Active and inactive are the calls of the source. Rule as the data show it: active = GI50 up to about 1.1 µM and inactive = higher.
Measured metric: GI50

1) CCNc1nnc(-c2ccccc2Nc2ccccc2-c2nnc(NCC)s2)s1 | 13.4 µM (inactive)
2) C/C(=C/CC[C@](C)(OC1OC(CO)C(O)C(O)C1O)[C@H]1CC[C@]2(C)[C@@H]1CC[C@@H]1[C@@]3(C)CC[C@H](O)C(C)(C)[C@@H]3C[C@H](O)[C@]12CO)CO (stereo partly specified) | > 100 µM (inactive)
3) CSC1=C(C#N)C(=S)N=C(N)C1C(=O)Nc1ccc(C)cc1 (stereo unspecified) | > 100 µM (inactive)
4) Cc1ccc([N+]2=NC(c3ccc([N+](=O)[O-])cc3)=NN(c3ccccc3)C2)cc1 | > 100 µM (inactive)
5) Cn1cccc(C(=O)c2ccccc2)c1=O | > 100 µM (inactive)
6) O=C(O)c1cc2ccccc2c(/N=N/c2ccc(S(=O)(=O)O)cc2)c1O | > 100 µM (inactive)
7) O=c1oc2ccc3ccccc3c2cc1-c1cn2c(n1)sc1ccccc12 | > 100 µM (inactive)
8) CC(=O)CC(=O)CCCC(=O)Nc1ccc(Cl)cc1Cl | > 100 µM (inactive)
9) CC(=O)Oc1ccc2cc(Oc3ccc(Cl)cc3)c(=O)oc2c1 | 53.8 µM (inactive)
10) COc1cc(C2SC(C)C(=O)N2c2ccc(-c3csc(NS(=O)(=O)c4ccc(Cl)c(OC)c4)n3)cc2)ccc1O (stereo unspecified) | 29.4 µM (inactive)
11) COc1ccccc1C(=O)N(C)c1ccc(Cl)c(C(=O)OC(C)C)c1 | 95.9 µM (inactive)
12) Nc1nc(Cl)c(N)c(NCC2(CO)CC2)n1 | > 100 µM (inactive)
13) CC(C)=CC1C(C(=O)OCc2cc3c(cc2Cl)OCO3)C1(C)C (stereo unspecified) | 39.7 µM (inactive)
14) O=C(Nc1ccc(Cl)cc1)NS(=O)(=O)c1ccc2c(c1)CCC2 | 49.2 µM (inactive)
15) CC(=O)OCC1OC(OCc2ccccc2)C(Br)C(OC(C)=O)C1OC(C)=O (stereo unspecified) | > 100 µM (inactive)
16) CC(NC(=O)OC(C)(C)C)C(=O)NC1CCCC1 (stereo unspecified) | > 100 µM (inactive)
17) CC(=O)OC1CC[C@@]2(C)C(CC[C@]3(C)C2CC=C2[C@@H]4CC(C)(C)CCC4(C)CCC23C)[C@@]1(C)C(=O)O (stereo partly specified) | 18.2 µM (inactive)
18) CC1(c2nc3cc(Cl)c(Cl)cc3[nH]2)CCC(C(=O)O)C(C)(C)O1 (stereo unspecified) | > 100 µM (inactive)
19) Cc1ccc(S(=O)(=O)CC(=O)CC(=O)C(=O)Nc2cccc(C(F)(F)F)c2)cc1 | > 100 µM (inactive)
20) CC(=O)OC1CCC2(C)C(CCC3C2CC(=O)C2(C)C3CC(N3CC3)C2C(C)=O)C1 (stereo unspecified) | 11.6 µM (inactive)
21) N#Cc1c(N2CCCC2)ncn(Cc2ccccc2)c1=S | 33.6 µM (inactive)

* * *

Tested on: OVCAR-8
Experiment: NCI tumour cell line growth inhibition, 48 h
Activity calls are given as the source filed them. Rule as the data show it: active = GI50 up to about 1.1 µM and inactive = higher.
Outcomes: class 1 (active), class 0 (inactive)

1) Cc1cc(Cl)ccc1NC(=O)CC1SC(N)=NC1=O (stereo unspecified) | class 0
2) CC(C)C1OC(=O)C(Cc2ccccc2)N(C)C(=O)C(C(C)C)OC(=O)C(Cc2ccccc2)N(C)C(=O)C(C(C)C)OC(=O)C(Cc2ccccc2)N(C)C1=O (stereo unspecified) | class 1
3) c1ccc([B-]23Oc4ccccc4[NH+]2c2ccccc2O3)cc1 (stereo unspecified) | class 0
4) Cc1ccc(SCC(=O)C2=C(O)CCCC2=O)cc1 | class 0
5) CC(=O)O[C@]1(C)OC(=O)[C@@H](C)N1[N+](=O)[O-] | class 0
6) O=C1/C(=C/c2ccc(Br)cc2)CCC/C1=C\c1ccc(Br)cc1 | class 0
7) COC(=O)[C@H]1[C@@H](C(C)C)O[C@@H](C(C)C)O[C@H]1C(F)(F)F | class 0
8) CCOC(=O)CCN1C(=O)c2c(NC(=O)C(=O)O)cccc2S1(=O)=O | class 0
9) CCOc1ccccc1N1C(=O)C(=O)C(c2nc3ccccc3o2)/C(=N\N)C1=O (stereo unspecified) | class 0
10) CN(C)P(=O)(Oc1occc1C(O)Cc1ccccc1)N(C)C (stereo unspecified) | class 0
11) Cc1ccc([N+]2=NC(c3ccc([N+](=O)[O-])cc3)=NN(c3ccccc3)C2)cc1 | class 0
12) CC1C2CC=CC(=O)[C@@]2(C)CCC12OCCO2 (stereo partly specified) | class 0
13) CSc1nc2c(c(O)c(C)c(=O)n2C2OC(COC(C)=O)C(OC(C)=O)C(OC(C)=O)C2OC(C)=O)c(=O)n1C (stereo unspecified) | class 0
14) Clc1ccccc1C(n1cc(Br)cn1)n1cc(Br)cn1 | class 0
15) COC(=O)c1ccccc1C1CN=NC12Cc1ccccc1C2=O (stereo unspecified) | class 0
16) Oc1cc(-c2ccc3ccccc3c2)nc2ncc(Cl)cc12 | class 0
17) C/C(CCn1[nH]c(=O)ccc1=O)=N\Nc1ccc([N+](=O)[O-])cc1[N+](=O)[O-] | class 0
18) O=c1c2cc(O)c(O)cc2oc2cc(O)c(C3OC(CO)C(O)C(O)C3O)c(O)c12 (stereo unspecified) | class 0
19) C=C1C(=O)O[C@@H]2[C@H]1CCC(C)=C1C=CC(=O)[C@]12C | class 0
20) Cc1nc2ccc(S(=O)(=O)O)cc2c(=O)n1-c1ccc(C(=O)NN2C(=O)C(Cl)C2c2cccs2)cc1 (stereo unspecified) | class 0
21) COC(=O)c1cc2c(nc1C)-c1ccccc1OS2(=O)=O | class 0
